# protocol_details: Cytotoxicity against human CEM cells assessed as reduction in cell viability incubated for 4 to 5 days by light microscopic analysis
# Type: toxicity, cell-based
# measurement_parameters: CEM cells (CCRF-CEM), time 4-5 day
measured_property: CC50 (µM)
The reply should contain only the number, in µM.

stdin: Please report the recorded CC50 for CCCCCCCCCCCCCCCCCCP(=O)(OCC(CC)CCCC)OP(=O)(O)OP(=O)(O)OC[C@@H]1C=C[C@H](n2cc(C)c(=O)[nH]c2=O)O1.N.N (some centres undefined) .
stdout: 42

stdin: Please report the recorded CC50 for CCCCCCCCCCCCCCCCCCOP(=O)(OCCCCCCCC)OP(=O)(O)OC[C@@H]1C=C[C@H](n2cc(C)c(=O)[nH]c2=O)O1.N (some centres undefined) .
stdout: 46.5

stdin: Please report the recorded CC50 for CCCCCCCCCCCCCCCCCCOP(=O)(OC)OP(=O)(O)OP(=O)(O)OC[C@@H]1C=C[C@H](n2cc(C)c(=O)[nH]c2=O)O1.N.N (some centres undefined) .
stdout: 34

stdin: Please report the recorded CC50 for CCCCCCCCCCCCCCCCCCOP(=O)(OCCCC)OP(=O)(O)OC[C@@H]1C=C[C@H](n2cc(C)c(=O)[nH]c2=O)O1.N (some centres undefined) .
stdout: 41.3

stdin: Please report the recorded CC50 for CCCCCCCCCCCCOP(=O)(OCc1ccc(OC(=O)CCCCCCCCCCC)cc1)OP(=O)(O)OC[C@@H]1C=C[C@H](n2cc(C)c(=O)[nH]c2=O)O1.N (some centres undefined) .
stdout: 48.4

stdin: Please report the recorded CC50 for CCCCCCCCCCCCCCCCCCP(=O)(OCc1ccc(OC(=O)CCCC)cc1)OP(=O)(O)OC[C@@H]1C=C[C@H](n2cc(C)c(=O)[nH]c2=O)O1.N (some centres undefined) .
stdout: 14.6

stdin: Please report the recorded CC50 for CCCCCCCCCCCCCCCCCCOP(=O)(OCCCC)OP(=O)(O)OP(=O)(O)OC[C@@H]1C=C[C@H](n2cc(C)c(=O)[nH]c2=O)O1.N.N (some centres undefined) .
stdout: 30

stdin: Please report the recorded CC50 for CCCCCCCCCCCCCCCCCCOP(=O)(OCC(CC)CCCC)OP(=O)(O)OP(=O)(O)OC[C@@H]1C=C[C@H](n2cc(C)c(=O)[nH]c2=O)O1.N.N (some centres undefined) .
stdout: 34

stdin: Please report the recorded CC50 for CCCCCCCCCCCCCCCCCCOP(=O)(OCc1ccc(OC(=O)CCCC)cc1)OP(=O)(O)OC[C@@H]1C=C[C@H](n2cc(C)c(=O)[nH]c2=O)O1.N (some centres undefined) .
stdout: 50.6

###

# Tested on: Human immunodeficiency virus 2
# protocol_details: Antiviral activity against HIV-2 ROD infected in thymidine kinase-deficient human CEM cells assessed as inhibition of virus-induced cytopathic effect incubated for 4 to 5 days by light microscopic analysis
# Format: functional, organism-based
# measurement_parameters: Human immunodeficiency virus 2, ROD, CCRF-CEM
I'd be grateful if you could share measured EC50 for these entries.
The reply should contain only the number, in nM.

stdin: So what EC50 did CCCCCCCCCCCCCCCCCCP(=O)(OCC(CC)CCCC)OP(=O)(O)OP(=O)(O)OC[C@@H]1C=C[C@H](n2cc(C)c(=O)[nH]c2=O)O1.N.N (stereo partly specified) get with Human immunodeficiency virus 2?
stdout: 240

stdin: So what EC50 did CCCCOP(=O)(OCc1ccc(OC(=O)CCCC)cc1)OP(=O)(O)OC[C@@H]1C=C[C@H](n2cc(C)c(=O)[nH]c2=O)O1.N (stereo partly specified) get with Human immunodeficiency virus 2?
stdout: 19200

stdin: So what EC50 did CCCCCCCCCCCCCCCCCCOP(=O)(OCCCC)OP(=O)(O)OC[C@@H]1C=C[C@H](n2cc(C)c(=O)[nH]c2=O)O1.N (stereo partly specified) get with Human immunodeficiency virus 2?
stdout: 1

stdin: So what EC50 did CCCCCCCCCCCCCCCCCCOP(=O)(OCc1ccc(OC(=O)CCCC)cc1)OP(=O)(O)OC[C@@H]1C=C[C@H](n2cc(C)c(=O)[nH]c2=O)O1.N (stereo partly specified) get with Human immunodeficiency virus 2?
stdout: 16

stdin: So what EC50 did CCCCCCCCCCCCCCCCCCP(=O)(OC)OP(=O)(O)OP(=O)(O)OC[C@@H]1C=C[C@H](n2cc(C)c(=O)[nH]c2=O)O1.N.N (stereo partly specified) get with Human immunodeficiency virus 2?
stdout: 480

stdin: So what EC50 did CCCCCCCCCCCCCCCCCCOP(=O)(OCC(CC)CCCC)OP(=O)(O)OP(=O)(O)OC[C@@H]1C=C[C@H](n2cc(C)c(=O)[nH]c2=O)O1.N.N (stereo partly specified) get with Human immunodeficiency virus 2?
stdout: 5

Value source: ChEMBL document CHEMBL5365447
